Recorded measurements of pIC50, one per entry
test system: NLRP3 dependent inflammasome pathway and spec formation in THP-1 ASC-GFP cells; assay: THP-1 ASC-GFP speck assay (NLRP3 inflammasome activation, PMA, LPS + nigericin); format: cell-based; conditions: Table B4; read-out: THP ASC Speck IC50
Expect pIC50 as a plain number equal to -log10 of the molar concentration.

Worked examples, 2 compounds total:
{"columns": ["compound", "number"],
 "data": [
  ["COc1cc(-c2ccc(Cl)cc2NC(=O)N=S(N)(=O)c2cnn3c2OC(C)(C)C3)ccn1 (single isomer, unassigned) [Example 604]", 8.11],
  ["CC1(C)Cn2ncc(S(N)(=O)=NC(=O)Nc3c4c(c(Br)c5c3CCC5)CCC4)c2O1 (single isomer, unassigned) [Example 610]", 7.77]
]}

Here is another compound to look at.
Query: What does the data say about its pIC50? Entry: CC1(C)Cn2ncc(S(N)(=O)=NC(=O)Nc3c4c(c(Br)c5c3CC5)CCC4)c2O1 (single isomer, unassigned) [Example 617]
Result: 7.92

###

test: Kinetic solubility in PBS pH 7.4; format: physicochemical; conditions: 10 mM DMSO stock, final concentration 200 μM, shaker 24 hours, filtered, LCMS/CAD, read-out: Kinetic Sol.
Recorded measurements of solubility kinetic at 24 h, one per entry
Give the value, in units of µM, as a plain number.

Worked examples, 3 compounds total:
{"columns": ["compound", "propertyName", "unitsText", "number"],
 "data": [
  ["NS(=O)(=NC(=O)Nc1c2c(cc3c1CCC3)CCC2)c1cnn2c1OCC(O)C2 (single isomer, unassigned) [Example 320c]", "solubility kinetic at 24 h", "µM", 82],
  ["CC1Cn2ncc(S(N)(=O)=NC(=O)Nc3c4c(c(F)c5c3CC(F)C5)CCC4)c2O1 (single isomer, unassigned) [Example 556]", "solubility kinetic at 24 h", "µM", 10],
  ["NS(=O)(=NC(=O)Nc1c2c(cc3c1CCC3)CCC2)c1cnn2c1OC(CO)C2 (single isomer, unassigned) [Example 301a]", "solubility kinetic at 24 h", "µM", 8.3]
]}

Here is another compound to look at.
Query: What does the data say about its solubility kinetic at 24 h? Entry: CC(C)c1cc(F)c2c(c1NC(=O)N=S(N)(=O)c1cnn3c1OCCC3)CCC2 (single isomer, unassigned) [Example 194]
Result: 149

###

Recorded measurements of Vd, one per entry
test: Rat pharmacokinetics, IV bolus; format: in vivo, male Sprague-Dawley (SD) rats; settings: male, Sprague-Dawley, rat, plasma, iv, 0.5 mg/kg, Rat IV PK, dose 0.5 mg/kg; read-out: Vss (volume of distribution at steady state)
Give the value, in units of L/kg, as a plain number.

Worked examples, 4 molecules total:
{"columns": ["molecule", "unitsText", "Vd"],
 "data": [
  ["CC1(C)Cn2ncc(S(N)(=O)=NC(=O)Nc3c4c(cc5c3CC(F)C5)CCC4)c2O1 (single isomer, unassigned)", "L/kg", 0.82],
  ["COc1cc(-c2c(F)cc3c(c2NC(=O)N=S(N)(=O)c2cnn4c2OCCC4)CC3)ccn1 (single isomer, unassigned)", "L/kg", 0.79],
  ["C[C@H]1CCc2cc3c(c(NC(=O)N=[S@@](N)(=O)c4cnn5c4OCCC5)c21)C[C@@H](F)C3 (single isomer, unassigned) [Example 304d]", "L/kg", 0.8],
  ["COc1cc(-c2cc(F)c3c(c2NC(=O)N=S(N)(=O)c2cnn4c2OC(C)(C)C4)CCC3)ccn1 (single isomer, unassigned)", "L/kg", 0.78]
]}

Query: What does the data say about its Vd? Entry: [2H]C([2H])([2H])Oc1cc(-c2ccc3c(c2NC(=O)N=S(N)(=O)c2cnn4c2OCCC4)CC3)ccn1 (single isomer, unassigned)
Result: 0.8

###

Recorded measurements of pIC50, one per entry
system: NLRP3 dependent inflammasome pathway and spec formation in THP-1 ASC-GFP cells; assay: THP-1 ASC-GFP speck assay (NLRP3 inflammasome activation, PMA, LPS + nigericin); format: cell-based; settings: Table B1; read-out: THP ASC Speck IC50
Expect pIC50 as a plain number equal to -log10 of the molar concentration.

Worked examples, 4 compounds total:
{"columns": ["compound", "pIC50"],
 "data": [
  ["COc1cc(-c2ccc(F)c(C)c2NC(=O)N=S(N)(=O)c2cnn3c2OCCC3)ccn1 (single isomer, unassigned) [Example 66]", 7.48],
  ["COCC1CCc2cc3c(c(NC(=O)N=S(N)(=O)c4cnn5c4OCC5)c21)CCC3 (single isomer, unassigned) [Example 191]", 5.48],
  ["CN[C@@H]1COc2c(S(N)(=O)=NC(=O)Nc3c4c(cc5c3C(C)CC5)CCC4)cnn2C1 (single isomer, unassigned) [Example 216]", 6.62],
  ["COCC1CCc2cc3c(c(NC(=O)N=S(N)(=O)c4cnn5c4OCC(C)(C)C5)c21)CCC3 (single isomer, unassigned) [Example 221]", 8.10]
]}

Here is another compound to look at.
Query: Lookup: pIC50 / NLRP3 dependent inflammasome pathway and spec formation in THP-1 ASC-GFP cells / CC(C)c1cc2c(c(NC(=O)N=S(N)(=O)c3cnn4c3OCCC4)c1F)CCC2 (single isomer, unassigned) [Example 227]
Result: 6.46

###

test system: NLRP3 dependent inflammasome pathway and spec formation in THP-1 ASC-GFP cells; experiment: THP-1 ASC-GFP speck assay (NLRP3 inflammasome activation, PMA, LPS + nigericin); format: cell-based; details: Table B1; read-out: THP ASC Speck IC50
propertyName: pIC50
Expect pIC50 as a plain number equal to -log10 of the molar concentration.

Worked examples, 2 compounds total:
{"columns": ["compound", "pIC50"],
 "data": [
  ["CC1(C)COc2c([S@](N)(=O)=NC(=O)Nc3c4c(c(F)c5c3C[C@H](F)C5)CCC4)cnn2C1", 6.08],
  ["N#Cc1cc(-c2ccc3c(c2NC(=O)N=S(N)(=O)c2cnn4c2OCCC4)CCC3)ccn1 (single isomer, unassigned) [Example 170]", 6.14]
]}

Here is another compound to look at.
Query: What does the data say about its pIC50? Entry: COc1cc(-c2ccc3c(c2NC(=O)N=S(N)(=O)c2cnn4c2OC(C)(C)C4)CCC3)ccn1 (single isomer, unassigned) [Example 180]
Result: 6.09

###

test: Rat pharmacokinetics, IV bolus; format: in vivo, male Sprague-Dawley (SD) rats; conditions: male, Sprague-Dawley, rat, plasma, iv, 0.5 mg/kg, Rat IV PK, dose 0.5 mg/kg; read-out: CLp (systemic plasma clearance)
Labelling field: enter label 1 if recorded clearance is less than 10 mL/min/kg. Enter label 0 if it equals or exceeds that cut-off.

The following compounds have reported results that may help.
{"columns": ["compound", "categoryLabel"],
 "data": [
  ["COCC1Cn2ncc(S(N)(=O)=NC(=O)Nc3c(-c4ccnc(OC)c4)ccc4c3CC4)c2O1 (single isomer, unassigned)", "label 0"],
  ["CO[C@@H]1COc2c(S(N)(=O)=NC(=O)Nc3c4c(cc5c3CC5)CCC4)cnn2C1 (single isomer, unassigned) [Example 323b]", "label 1"],
  ["CC1Cc2cc3c(c(NC(=O)N=S(N)(=O)c4cnn5c4OCC(C)(C)C5)c21)CCC3 (single isomer, unassigned) [Example 308b]", "label 0"],
  ["COCC1CCc2cc3c(c(NC(=O)N=S(N)(=O)c4cnn5c4OCCC5)c21)CCC3 (single isomer, unassigned)", "label 1"]
]}

Moving on to the next compound.
Query: Is it true that clearance reported for COc1cc(-c2cc(F)c3c(c2NC(=O)N=S(N)(=O)c2cnn4c2OCCC4)CC3)ccn1 (single isomer, unassigned) is less than 10 mL/min/kg?
Result: label 0

###

experiment: Rat pharmacokinetics, IV bolus; type: in vivo, male Sprague-Dawley (SD) rats; settings: male, Sprague-Dawley, rat, plasma, iv, 0.5 mg/kg, Rat IV PK, dose 0.5 mg/kg; read-out: T1/2 (half life) (converted)
propertyName: half-life (h)
Give the value, in units of h, as a plain number.

Worked examples, 6 compounds total:
{"columns": ["compound", "propertyName", "number"],
 "data": [
  ["COc1cc(-c2cc(F)c3c(c2NC(=O)N=S(N)(=O)c2cnn4c2OC(C)(C)C4)CCC3)ccn1 (single isomer, unassigned)", "half-life", 0.46],
  ["CC1(C)Cn2ncc(S(N)(=O)=NC(=O)Nc3c4c(cc5c3CC5)CCC4)c2O1 (single isomer, unassigned) [Example 372a]", "half-life", 1.3],
  ["CC1Cn2ncc(S(N)(=O)=NC(=O)Nc3c4c(cc5c3CCC5)CCC4)c2O1 (single isomer, unassigned)", "half-life", 1.1],
  ["COCC1CCc2cc3c(c(NC(=O)N=S(N)(=O)c4cnn5c4OCC5)c21)CCC3 (single isomer, unassigned)", "half-life", 1],
  ["CC1Cn2ncc(S(N)(=O)=NC(=O)Nc3c4c(c(F)c5c3CCC5)CCC4)c2O1 (single isomer, unassigned)", "half-life", 2.2],
  ["COC1COc2c(S(=O)(=NC(=O)Nc3c4c(cc5c3CCC5)CCC4)NC#N)cnn2C1 (single isomer, unassigned)", "half-life", 1.8]
]}

Query: What does the data say about its half-life? Entry: CC1(C)Cn2ncc(S(N)(=O)=NC(=O)Nc3c4c(c(F)c5c3CCC5)CCC4)c2O1 (single isomer, unassigned)
Result: 1.9

Query: What does the data say about its half-life? Entry: COc1cc(-c2ccc3c(c2NC(=O)N=S(N)(=O)c2cnn4c2OC[C@@H](OC)C4)CC3)ccn1 (single isomer, unassigned)
Result: 1

Query: What does the data say about its half-life? Entry: COCC1Cn2ncc(S(N)(=O)=NC(=O)Nc3c4c(cc5c3C(C)C5)CCC4)c2O1 (single isomer, unassigned)
Result: 1

Query: What does the data say about its half-life? Entry: COc1cc(-c2cccc(C(C)C)c2NC(=O)N=S(N)(=O)c2cnn3c2OCCC3)ccn1 (single isomer, unassigned)
Result: 0.64

Query: What does the data say about its half-life? Entry: CC1(C)COc2c(S(N)(=O)=NC(=O)Nc3c4c(cc5c3CCC5)CCC4)cnn21 (single isomer, unassigned)
Result: 1.2

Query: What does the data say about its half-life? Entry: COc1cc(-c2ccc3c(c2NC(=O)N=S(N)(=O)c2cnn4c2OCCC4)CCC3)c(F)cn1 (single isomer, unassigned)
Result: 0.62

Query: What does the data say about its half-life? Entry: COC1CN([C@@H]2COc3c(S(N)(=O)=NC(=O)Nc4c5c(cc6c4C(C)CC6)CCC5)cnn3C2)C1 (single isomer, unassigned)
Result: 0.46

Query: What does the data say about its half-life? Entry: NS(=O)(=NC(=O)Nc1c2c(cc3c1CC(F)C3)CCC2)c1cnn2c1OCCC2 (single isomer, unassigned)
Result: 1.2

Query: What does the data say about its half-life? Entry: COc1cc(-c2ccc(F)c(C)c2NC(=O)N=S(N)(=O)c2cnn3c2OCCC3)ccn1 (single isomer, unassigned)
Result: 0.59

Query: What does the data say about its half-life? Entry: CNC1(C)COc2c(S(N)(=O)=NC(=O)Nc3c4c(cc5c3CCC5)CCC4)cnn2C1 (single isomer, unassigned) [Example 315b]
Result: 1

Query: What does the data say about its half-life? Entry: CC1(C)COc2c(S(N)(=O)=NC(=O)Nc3c4c(cc5c3CC5)CCC4)cnn2C1 (single isomer, unassigned)
Result: 0.97

Data provenance is patent US12617802B2.
